Molecular target: Sodium-dependent dopamine transporter (Mus musculus, UniProt Q61327)
Sequence (Q61327 whole entry): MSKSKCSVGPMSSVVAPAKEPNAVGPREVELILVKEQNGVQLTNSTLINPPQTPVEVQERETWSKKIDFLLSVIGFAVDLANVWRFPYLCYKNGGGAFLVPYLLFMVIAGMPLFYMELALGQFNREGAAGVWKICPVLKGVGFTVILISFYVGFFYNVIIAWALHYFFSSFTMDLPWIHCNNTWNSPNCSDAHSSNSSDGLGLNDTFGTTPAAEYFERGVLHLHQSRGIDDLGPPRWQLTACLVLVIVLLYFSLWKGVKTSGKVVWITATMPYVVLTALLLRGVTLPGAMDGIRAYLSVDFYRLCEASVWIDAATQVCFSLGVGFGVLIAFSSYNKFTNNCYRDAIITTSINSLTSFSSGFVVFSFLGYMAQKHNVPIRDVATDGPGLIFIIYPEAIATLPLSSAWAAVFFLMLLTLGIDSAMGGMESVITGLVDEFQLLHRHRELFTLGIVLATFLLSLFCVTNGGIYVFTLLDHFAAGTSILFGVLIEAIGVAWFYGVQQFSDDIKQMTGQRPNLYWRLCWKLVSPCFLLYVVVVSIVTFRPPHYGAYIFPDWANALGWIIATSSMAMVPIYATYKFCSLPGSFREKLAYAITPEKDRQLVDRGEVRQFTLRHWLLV
measuredEndpoint: Ki
Kindly write the number and append the unit.

// lookup Ki for COC[C@@]12CNCC[C@]1(c1ccc(Cl)c(Cl)c1)C2 (relative stereo; 17) 10 nM

----------
Molecular target: Cytochrome P450 2C9 (Homo sapiens)
Sequence (P11712 whole entry): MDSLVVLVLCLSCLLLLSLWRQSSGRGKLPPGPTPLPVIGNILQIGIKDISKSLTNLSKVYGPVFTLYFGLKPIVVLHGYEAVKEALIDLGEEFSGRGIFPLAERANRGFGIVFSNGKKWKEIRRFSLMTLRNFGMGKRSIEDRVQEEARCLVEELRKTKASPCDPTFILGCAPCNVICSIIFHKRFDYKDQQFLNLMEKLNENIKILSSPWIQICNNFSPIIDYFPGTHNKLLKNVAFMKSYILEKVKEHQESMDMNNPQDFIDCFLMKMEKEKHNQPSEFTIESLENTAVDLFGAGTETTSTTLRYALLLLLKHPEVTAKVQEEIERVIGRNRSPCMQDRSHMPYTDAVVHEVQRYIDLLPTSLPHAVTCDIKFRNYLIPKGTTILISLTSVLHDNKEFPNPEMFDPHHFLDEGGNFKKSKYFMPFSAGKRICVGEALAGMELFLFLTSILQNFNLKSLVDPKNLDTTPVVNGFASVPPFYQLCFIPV
Please go through the items and note down their pIC50.
Numbers only, as −log10 of the molar value.

See these solved cases before continuing.
INSERT INTO results (compound, recordedvalue) VALUES
  ('C=CCC(OC)[C@]12CNCC[C@]1(c1ccc(Cl)c(Cl)c1)C2 (mixture of isomers; form 1)', 5.52),
  ('COC[C@@]12CNCC[C@]1(c1ccc(Cl)c(Cl)c1)C2 (relative stereo; 18) [GSK1360707]', 5.00),
  ('COC[C@@]12CNCC[C@]1(c1ccc(Cl)c(Cl)c1)C2 (relative stereo; 17) [GSK1360707]', 5.00),
  ('COC[C@@]12CNCC[C@]1(c1ccc(Cl)c(Cl)c1)C2 (racemic) [GSK1360707]', 5.00);

// lookup pIC50 for COC[C@@]12CNCC[C@]1(c1ccc3ccccc3c1)C2 (single isomer, unassigned; 28) 5.10

----------
Each entry below carries its measured pIC50, system: Cytochrome P450 1A2 (Homo sapiens, UniProt P05177).
Sequence (P05177 whole entry): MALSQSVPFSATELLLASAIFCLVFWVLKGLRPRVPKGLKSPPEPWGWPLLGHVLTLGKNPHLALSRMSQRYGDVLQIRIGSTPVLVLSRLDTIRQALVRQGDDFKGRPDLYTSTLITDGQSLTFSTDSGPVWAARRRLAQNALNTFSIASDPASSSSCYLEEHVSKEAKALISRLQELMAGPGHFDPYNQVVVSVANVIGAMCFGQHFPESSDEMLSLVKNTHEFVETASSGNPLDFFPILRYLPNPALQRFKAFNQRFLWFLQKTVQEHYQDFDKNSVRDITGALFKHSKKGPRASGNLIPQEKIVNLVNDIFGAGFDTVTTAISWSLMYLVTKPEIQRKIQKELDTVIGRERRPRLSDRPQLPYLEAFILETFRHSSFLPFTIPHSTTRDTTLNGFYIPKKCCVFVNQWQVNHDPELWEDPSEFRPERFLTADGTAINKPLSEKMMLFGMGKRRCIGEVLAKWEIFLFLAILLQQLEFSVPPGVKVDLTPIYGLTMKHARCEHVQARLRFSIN
One number for each entry, as −log10 of the molar value.

See these solved cases before continuing.
INSERT INTO assay_data (compound, recordedvalue) VALUES
  ('C=CCC(OC)[C@]12CNCC[C@]1(c1ccc(Cl)c(Cl)c1)C2 (mixture of isomers; form 1)', 5.52),
  ('COC[C@@]12CNCC[C@]1(c1ccc(Cl)c(Cl)c1)C2 (relative stereo; 18) [GSK1360707]', 5.00),
  ('COC[C@@]12CNCC[C@]1(c1ccc(Cl)c(Cl)c1)C2 (relative stereo; 17) [GSK1360707]', 5.00),
  ('COC[C@@]12CNCC[C@]1(c1ccc3ccccc3c1)C2 (single isomer, unassigned; 28)', 5.10);

Switching to the query record.
Under Cytochrome P450 1A2 (Homo sapiens, UniProt P05177): pIC50 value of COC[C@@]12CNCC[C@]1(c1ccc(Cl)c(Cl)c1)C2 (racemic) [GSK1360707] ? 5.00

----------
Target: Sodium-dependent serotonin transporter (Rattus norvegicus, UniProt P31652)
Sequence (P31652 whole entry): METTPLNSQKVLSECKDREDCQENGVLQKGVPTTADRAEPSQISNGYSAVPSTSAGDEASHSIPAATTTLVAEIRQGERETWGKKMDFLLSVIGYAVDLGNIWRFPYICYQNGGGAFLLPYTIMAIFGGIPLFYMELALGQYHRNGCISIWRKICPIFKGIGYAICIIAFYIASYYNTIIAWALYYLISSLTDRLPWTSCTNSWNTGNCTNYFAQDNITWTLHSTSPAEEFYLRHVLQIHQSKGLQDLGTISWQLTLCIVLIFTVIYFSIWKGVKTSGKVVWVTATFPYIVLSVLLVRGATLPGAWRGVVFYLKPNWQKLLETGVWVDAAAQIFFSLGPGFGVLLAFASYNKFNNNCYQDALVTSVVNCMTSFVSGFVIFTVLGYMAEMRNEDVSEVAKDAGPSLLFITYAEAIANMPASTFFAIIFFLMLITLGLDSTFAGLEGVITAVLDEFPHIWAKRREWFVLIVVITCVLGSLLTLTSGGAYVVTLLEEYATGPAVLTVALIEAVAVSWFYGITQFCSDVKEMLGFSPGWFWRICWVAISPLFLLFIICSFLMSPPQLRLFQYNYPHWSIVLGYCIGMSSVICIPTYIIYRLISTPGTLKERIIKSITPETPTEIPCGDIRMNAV
measuredEndpoint: pKi
Answers are plain numbers, as −log10 of the molar value.

// lookup pKi for COC[C@@]12CNCC[C@]1(c1ccc(Cl)c(Cl)c1)C2 (relative stereo; 17) [GSK1360707] 8.90

----------
Each entry below carries its measured pIC50, system: Cytochrome P450 3A4 (Homo sapiens, UniProt P08684).
Sequence (P08684 whole entry): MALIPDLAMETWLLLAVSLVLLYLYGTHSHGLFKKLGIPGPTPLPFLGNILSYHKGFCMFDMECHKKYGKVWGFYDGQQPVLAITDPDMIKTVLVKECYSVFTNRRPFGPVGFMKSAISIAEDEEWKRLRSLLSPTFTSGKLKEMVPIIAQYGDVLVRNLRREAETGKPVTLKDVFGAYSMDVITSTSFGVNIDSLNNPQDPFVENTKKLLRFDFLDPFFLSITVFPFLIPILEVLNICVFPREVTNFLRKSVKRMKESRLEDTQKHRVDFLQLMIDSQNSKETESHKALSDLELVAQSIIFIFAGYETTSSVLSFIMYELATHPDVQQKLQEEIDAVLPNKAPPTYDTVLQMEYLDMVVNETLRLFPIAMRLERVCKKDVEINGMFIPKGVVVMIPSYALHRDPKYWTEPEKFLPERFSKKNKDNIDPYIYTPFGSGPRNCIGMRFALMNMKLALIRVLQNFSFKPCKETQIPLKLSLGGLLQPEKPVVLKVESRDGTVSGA
Give bare numbers, as −log10 of the molar value.

INSERT INTO results (compound, recordedvalue) VALUES
  ('COC[C@@]12CNCC[C@]1(c1ccc3ccccc3c1)C2 (single isomer, unassigned; 28)', 5.10),
  ('COC[C@@]12CNCC[C@]1(c1ccc(Cl)c(Cl)c1)C2 (racemic) [GSK1360707]', 5.00),
  ('COC[C@@]12CNCC[C@]1(c1ccc(Cl)c(Cl)c1)C2 (relative stereo; 18) [GSK1360707]', 5.00);

Give measured pIC50 for every item shown.
1. COC[C@@]12CNCC[C@]1(c1ccc(Cl)c(Cl)c1)C2 (relative stereo; 17) [GSK1360707]
2. C=CCC(OC)[C@]12CNCC[C@]1(c1ccc(Cl)c(Cl)c1)C2 (mixture of isomers; form 1)

5.00
5.52

Attribution: ChEMBL document CHEMBL1177725
